- testedSystem: Voltage-dependent T-type calcium channel subunit alpha-1G (Homo sapiens)
- methodNotes: Inhibition of alpha-1G T-type calcium channel expressed in HEK293 cells by electrophysiological method
observationType: IC50 (µM)
Express the result in µM but write the number alone.

CN1CCN(C(=O)c2ccc3c(=O)n(Cc4ccc(Cl)cc4)c(=S)[nH]c3c2)CC1 :: 11.4

Q: I'm curious: which IC50 was measured for CCN1C(N2CCCCC2)=Nc2ccccc2C1CC(=O)NCc1ccc(NS(=O)(=O)c2ccc(C)cc2)cc1 (stereo not given) tested on Voltage-dependent T-type calcium channel subunit alpha-1G (Homo sapiens)?
A: 0.96

====

- testedSystem: Voltage-dependent T-type calcium channel subunit alpha-1G (Homo sapiens)
- methodNotes: Inhibition of alpha-1G T-type calcium channel expressed in HEK293 cells at 10 uM by electrophysiological method
- Assay type: cell-based
inhibition below 40% gives class 0; inhibition at or above it gives class 1.

Worked set:
CCC1CCCCN1CCCNC(=O)c1ccc2c(=O)n(Cc3ccc(Cl)cc3)c(=S)[nH]c2c1 (stereo not given) :: class 1
O=C(NCCCN1CCCC1)c1ccc2c(=O)n(Cc3ccc(Cl)cc3)c(=S)[nH]c2c1 :: class 1
CN(CCCNC(=O)c1ccc2c(=O)n(Cc3ccc(Cl)cc3)c(=S)[nH]c2c1)Cc1ccccc1 :: class 0
CC1CCN(CCCNC(=O)c2ccc3c(=O)n(Cc4ccc(Cl)cc4)c(=S)[nH]c3c2)CC1 :: class 1

Pending compound:
Q: Has `CN(C)CCNC(=O)c1ccc2c(=O)n(Cc3ccc(Cl)cc3)c(=S)[nH]c2c1` a recorded inhibition greater than or equal to 40%?
A: class 1

====

- testedSystem: Voltage-dependent T-type calcium channel subunit alpha-1H (Homo sapiens) (UniProt O95180)
- Sequence (O95180 whole entry): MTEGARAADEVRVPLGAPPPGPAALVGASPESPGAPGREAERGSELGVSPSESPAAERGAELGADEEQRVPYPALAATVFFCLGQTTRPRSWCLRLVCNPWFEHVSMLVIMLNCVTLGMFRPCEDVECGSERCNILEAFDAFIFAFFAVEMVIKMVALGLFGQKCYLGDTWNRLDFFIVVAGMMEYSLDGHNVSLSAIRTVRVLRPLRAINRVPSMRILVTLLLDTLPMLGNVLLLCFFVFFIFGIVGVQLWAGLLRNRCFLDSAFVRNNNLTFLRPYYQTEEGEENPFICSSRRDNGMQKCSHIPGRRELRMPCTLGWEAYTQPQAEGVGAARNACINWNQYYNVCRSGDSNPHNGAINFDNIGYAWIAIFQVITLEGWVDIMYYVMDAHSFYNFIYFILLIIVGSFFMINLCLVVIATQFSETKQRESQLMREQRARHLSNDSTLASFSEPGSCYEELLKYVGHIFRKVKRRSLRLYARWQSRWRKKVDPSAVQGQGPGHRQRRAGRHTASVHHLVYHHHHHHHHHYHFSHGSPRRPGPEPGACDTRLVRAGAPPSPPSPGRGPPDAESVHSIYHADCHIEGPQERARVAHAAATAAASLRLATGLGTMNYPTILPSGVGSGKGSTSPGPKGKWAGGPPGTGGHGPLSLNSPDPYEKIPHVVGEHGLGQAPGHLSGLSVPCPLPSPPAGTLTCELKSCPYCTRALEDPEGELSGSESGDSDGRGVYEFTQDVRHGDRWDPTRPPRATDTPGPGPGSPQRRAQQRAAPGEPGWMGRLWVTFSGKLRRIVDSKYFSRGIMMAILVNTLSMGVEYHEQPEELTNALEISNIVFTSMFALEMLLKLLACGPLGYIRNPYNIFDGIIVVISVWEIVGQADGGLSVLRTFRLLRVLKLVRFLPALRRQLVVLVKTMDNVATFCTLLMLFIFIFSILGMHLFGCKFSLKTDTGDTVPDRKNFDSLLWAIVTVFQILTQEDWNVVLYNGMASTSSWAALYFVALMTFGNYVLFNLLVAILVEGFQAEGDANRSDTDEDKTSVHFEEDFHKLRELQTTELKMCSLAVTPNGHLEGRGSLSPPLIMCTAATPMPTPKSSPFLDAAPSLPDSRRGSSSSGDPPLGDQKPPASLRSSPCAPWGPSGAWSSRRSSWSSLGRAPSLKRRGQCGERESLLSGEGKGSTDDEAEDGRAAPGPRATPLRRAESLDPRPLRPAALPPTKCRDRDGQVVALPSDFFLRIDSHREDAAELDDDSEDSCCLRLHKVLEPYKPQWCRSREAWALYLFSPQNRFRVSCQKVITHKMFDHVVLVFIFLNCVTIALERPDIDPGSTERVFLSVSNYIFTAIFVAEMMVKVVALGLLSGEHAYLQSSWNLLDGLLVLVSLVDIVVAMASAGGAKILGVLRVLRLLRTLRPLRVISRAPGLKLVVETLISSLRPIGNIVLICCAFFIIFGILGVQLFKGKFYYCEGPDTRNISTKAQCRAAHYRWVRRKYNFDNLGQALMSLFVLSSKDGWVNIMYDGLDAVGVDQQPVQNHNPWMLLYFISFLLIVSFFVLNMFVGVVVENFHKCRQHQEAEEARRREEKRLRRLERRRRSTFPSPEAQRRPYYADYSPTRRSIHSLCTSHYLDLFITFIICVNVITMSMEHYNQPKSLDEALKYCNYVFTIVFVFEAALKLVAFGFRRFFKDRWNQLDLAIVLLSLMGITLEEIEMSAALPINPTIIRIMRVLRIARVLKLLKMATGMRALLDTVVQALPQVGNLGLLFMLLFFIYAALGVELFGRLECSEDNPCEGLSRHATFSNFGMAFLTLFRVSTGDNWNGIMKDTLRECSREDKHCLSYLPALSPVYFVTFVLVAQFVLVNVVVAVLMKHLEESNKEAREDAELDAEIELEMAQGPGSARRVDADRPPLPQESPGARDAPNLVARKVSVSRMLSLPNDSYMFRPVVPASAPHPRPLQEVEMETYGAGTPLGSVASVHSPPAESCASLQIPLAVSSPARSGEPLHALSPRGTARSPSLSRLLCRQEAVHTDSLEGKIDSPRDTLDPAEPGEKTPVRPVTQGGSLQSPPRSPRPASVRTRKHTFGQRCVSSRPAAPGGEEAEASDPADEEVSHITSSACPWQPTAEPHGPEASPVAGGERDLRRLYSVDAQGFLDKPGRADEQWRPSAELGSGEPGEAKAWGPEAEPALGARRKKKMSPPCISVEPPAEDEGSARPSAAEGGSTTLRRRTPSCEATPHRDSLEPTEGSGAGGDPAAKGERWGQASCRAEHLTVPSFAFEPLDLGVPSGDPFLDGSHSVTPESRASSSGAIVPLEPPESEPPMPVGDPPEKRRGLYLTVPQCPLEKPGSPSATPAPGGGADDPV
- methodNotes: Inhibition of alpha-1H T-type calcium channel Cav3.2 expressed in Xenopus unfertilized oocytes at 100 uM by two-electrode voltage clamp method
- Format: cell-based
- conditionSummary: Oocyte
inhibition below 30% gives False; inhibition at or above it gives True.

CCN(CC)CCOC(=O)c1ccc(NC(=O)c2cc3ccccc3o2)cc1 :: True
O=C1CC(N2CCN(C(c3ccccc3)c3ccccc3)CC2)C(=O)N1c1ccc(Cl)c(C(F)(F)F)c1 (centres undefined) :: True
CCOC(=O)c1cc2c(c(CSc3nc4ccccc4c(=O)n3CCCN3CCCCC3)c1)OCOC2 :: True
CCN(CC)CCNC(=O)C1c2ccccc2C(=O)N(Cc2ccc(F)cc2)C1c1ccc(OC)cc1 (centres undefined) :: True
CCN(CC)CCNC(=O)c1ccc(NC(=O)c2cn(CC)c3nc(C)ccc3c2=O)cc1 :: True

Q: Has `O=C(CSC1CN(C(c2ccccc2)c2ccccc2)C1)NNC(=O)c1ccc(Cl)cc1` a recorded inhibition greater than or equal to 30%?
A: False

Q: What about this molecule? O=C1CC(N2CCN(C(c3ccccc3)c3ccc(Cl)cc3)CC2)C(=O)N1c1cccc(Cl)c1 (centres undefined)
A: False

Q: What about this molecule? `COC(=O)c1ccc2c(=O)n(Cc3ccc(C(=O)N4CCC(N5CCCCC5)CC4)cc3)c(=S)[nH]c2c1`
A: False

Q: What about this molecule? `O=C(CCN1C(=O)c2ccccc2C1=O)N1CCN(Cc2ccc(Cl)cc2Cl)CC1`
A: False

====

- testedSystem: Voltage-dependent T-type calcium channel subunit alpha-1G (Homo sapiens)
- methodNotes: Inhibition of alpha-1G T-type calcium channel expressed in HEK293 cells at 10 uM by electrophysiological method
- Assay type: cell-based
inhibition values for the compounds below.
Express the result in % but write the number alone.

# annotated cases, reported inhibition shown
CCN1CCN(CCCNC(=O)c2ccc3c(=O)n(Cc4ccc(Cl)cc4)c(=S)[nH]c3c2)CC1 :: 78.9
O=C(NCCCN1CCCCC1)c1ccc2c(=O)n(Cc3ccc(Cl)cc3)c(=S)[nH]c2c1 :: 34.3

Q: Fill blank: measured inhibition of the compound `CCCCN(C)CCNC(=O)c1ccc2c(=O)n(Cc3ccc(Cl)cc3)c(=S)[nH]c2c1` is ____.
A: 34.3

Q: What about this compound? `CN1CCN(C(=O)c2ccc3c(=O)n(Cc4ccc(Cl)cc4)c(=S)[nH]c3c2)CC1`
A: 51.4

Q: What about this compound? `O=C(NCCCN1CCCCCC1)c1ccc2c(=O)n(Cc3ccc(Cl)cc3)c(=S)[nH]c2c1`
A: 85.4

====

- methodNotes: Inhibition of alpha-1B N-type calcium channel expressed in HEK293 cells by electrophysiological method
- Type: cell-based
Mark criterion met only when IC50 stays strictly below 6 µM. Values equal to the cut-off are criterion not met.

Worked set:
O=C(NCCCN1CCCCC1)c1ccc2c(=O)n(Cc3ccc(Cl)cc3)c(=S)[nH]c2c1 :: criterion not met
CCN1CCN(CCCNC(=O)c2ccc3c(=O)n(Cc4ccc(Cl)cc4)c(=S)[nH]c3c2)CC1 :: criterion not met
CCC1CCCCN1CCCNC(=O)c1ccc2c(=O)n(Cc3ccc(Cl)cc3)c(=S)[nH]c2c1 (stereo unspecified) :: criterion met
O=C(NCCCN1CCCCCC1)c1ccc2c(=O)n(Cc3ccc(Cl)cc3)c(=S)[nH]c2c1 :: criterion met
CC1CCN(CCCNC(=O)c2ccc3c(=O)n(Cc4ccc(Cl)cc4)c(=S)[nH]c3c2)CC1 :: criterion not met

Q: Is IC50 strictly under 6 µM for the entry `O=C(NCCCN1CCCC1)c1ccc2c(=O)n(Cc3ccc(Cl)cc3)c(=S)[nH]c2c1` ?
A: criterion not met

====

- testedSystem: Voltage-dependent T-type calcium channel subunit alpha-1H (Homo sapiens) (UniProt O95180)
- methodNotes: Inhibition of alpha-1H T-type calcium channel Cav3.2 expressed in Xenopus unfertilized oocytes at 100 uM by two-electrode voltage clamp method
- Format: cell-based
- conditionSummary: Oocyte
observationType: inhibition

# annotated cases, reported inhibition shown
Cc1ccc(N(CC(O)CN(Cc2ccccc2)Cc2ccccc2)S(=O)(=O)c2ccccc2[N+](=O)[O-])cc1 (configuration not stated) :: 34.7%
O=C(CCN1C(=O)c2ccccc2C1=O)N1CCN(C(c2ccccc2)c2ccccc2)CC1 :: 43.3%
O=C(NCCCn1ccnc1)c1ccc2c(=O)n(-c3ccccc3)c(=S)[nH]c2c1 :: 2.47%
O=S(=O)(c1ccccc1)N(CC(O)CN(Cc1ccccc1)Cc1ccccc1)c1ccccc1 (configuration not stated) :: 15.2%

Q: Fill blank: measured inhibition of the compound `CN(CCCNC(=O)c1ccc(-n2c(=S)[nH]c3ccc(Br)cc3c2=O)cc1)Cc1ccccc1` is ____.
A: 25.7%

Q: What about this compound? OC(CN1CCN(C(c2ccccc2)c2ccccc2)CC1)Oc1cccc(C(F)(F)F)c1 (configuration not stated)
A: 58.3%

Q: What about this compound? `CCN(CC)CCNC(=O)c1cn(-c2ccc(Cl)cc2)c(=O)c2ccccc12`
A: 13%

Q: What about this compound? `O=C(NCCCN1CCOCC1)c1ccc2c(=O)n(Cc3ccccc3)c(=S)[nH]c2c1`
A: 15.9%

Q: What about this compound? `O=C(CN(c1cccc([N+](=O)[O-])c1)S(=O)(=O)c1ccccc1)N1CCN(Cc2ccccc2)CC1`
A: 42.5%

Q: What about this compound? `CN(c1ccc(Br)cc1)S(=O)(=O)c1ccc2[nH]cc(C(=O)N3CCN(Cc4ccccc4)CC3)c(=O)c2c1`
A: 86.5%

Q: What about this compound? `O=C(NCCCN1CCCCC1)c1ccc2c(=O)n(Cc3ccc(Cl)cc3)c(=S)[nH]c2c1`
A: 72.9%

====

- testedSystem: Voltage-dependent T-type calcium channel subunit alpha-1G (Homo sapiens)
- methodNotes: Inhibition of alpha-1G T-type calcium channel expressed in HEK293 cells by electrophysiological method
IC50 values for the compounds below.
Express the result in µM but write the number alone.

# annotated cases, reported IC50 shown
FC(F)(F)c1cccc(N2CCN(CCNCc3cc(-c4ccccc4C(F)(F)F)no3)CC2)c1 :: 1.02
O=C(NCCCN1CCCC1)c1ccc2c(=O)n(Cc3ccc(Cl)cc3)c(=S)[nH]c2c1 :: 1.16
CCN1CCN(CCCNC(=O)c2ccc3c(=O)n(Cc4ccc(Cl)cc4)c(=S)[nH]c3c2)CC1 :: 2.53
CC1CCN(CCCNC(=O)c2ccc3c(=O)n(Cc4ccc(Cl)cc4)c(=S)[nH]c3c2)CC1 :: 1.1
Cc1ccc(N2CCN(CCNCc3cc(-c4ccccc4C(F)(F)F)no3)CC2)c(C)c1 :: 1.53
COc1ccccc1-c1cc(CNCCN2CCN(c3cccc(C(F)(F)F)c3)CC2)on1 :: 2.04
O=C(NCCCN1CCCCCC1)c1ccc2c(=O)n(Cc3ccc(Cl)cc3)c(=S)[nH]c2c1 :: 1.41
CN(CCCNC(=O)c1ccc2c(=O)n(Cc3ccc(Cl)cc3)c(=S)[nH]c2c1)Cc1ccccc1 :: 4.69

Q: Fill blank: measured IC50 of the compound `COc1ccccc1-c1cc(CNCCN2CCN(c3ccc(C)cc3C)CC2)on1` is ____.
A: 2.02

====

- testedSystem: Voltage-dependent T-type calcium channel subunit alpha-1G (Homo sapiens, UniProt O43497)
- Sequence (O43497 whole entry): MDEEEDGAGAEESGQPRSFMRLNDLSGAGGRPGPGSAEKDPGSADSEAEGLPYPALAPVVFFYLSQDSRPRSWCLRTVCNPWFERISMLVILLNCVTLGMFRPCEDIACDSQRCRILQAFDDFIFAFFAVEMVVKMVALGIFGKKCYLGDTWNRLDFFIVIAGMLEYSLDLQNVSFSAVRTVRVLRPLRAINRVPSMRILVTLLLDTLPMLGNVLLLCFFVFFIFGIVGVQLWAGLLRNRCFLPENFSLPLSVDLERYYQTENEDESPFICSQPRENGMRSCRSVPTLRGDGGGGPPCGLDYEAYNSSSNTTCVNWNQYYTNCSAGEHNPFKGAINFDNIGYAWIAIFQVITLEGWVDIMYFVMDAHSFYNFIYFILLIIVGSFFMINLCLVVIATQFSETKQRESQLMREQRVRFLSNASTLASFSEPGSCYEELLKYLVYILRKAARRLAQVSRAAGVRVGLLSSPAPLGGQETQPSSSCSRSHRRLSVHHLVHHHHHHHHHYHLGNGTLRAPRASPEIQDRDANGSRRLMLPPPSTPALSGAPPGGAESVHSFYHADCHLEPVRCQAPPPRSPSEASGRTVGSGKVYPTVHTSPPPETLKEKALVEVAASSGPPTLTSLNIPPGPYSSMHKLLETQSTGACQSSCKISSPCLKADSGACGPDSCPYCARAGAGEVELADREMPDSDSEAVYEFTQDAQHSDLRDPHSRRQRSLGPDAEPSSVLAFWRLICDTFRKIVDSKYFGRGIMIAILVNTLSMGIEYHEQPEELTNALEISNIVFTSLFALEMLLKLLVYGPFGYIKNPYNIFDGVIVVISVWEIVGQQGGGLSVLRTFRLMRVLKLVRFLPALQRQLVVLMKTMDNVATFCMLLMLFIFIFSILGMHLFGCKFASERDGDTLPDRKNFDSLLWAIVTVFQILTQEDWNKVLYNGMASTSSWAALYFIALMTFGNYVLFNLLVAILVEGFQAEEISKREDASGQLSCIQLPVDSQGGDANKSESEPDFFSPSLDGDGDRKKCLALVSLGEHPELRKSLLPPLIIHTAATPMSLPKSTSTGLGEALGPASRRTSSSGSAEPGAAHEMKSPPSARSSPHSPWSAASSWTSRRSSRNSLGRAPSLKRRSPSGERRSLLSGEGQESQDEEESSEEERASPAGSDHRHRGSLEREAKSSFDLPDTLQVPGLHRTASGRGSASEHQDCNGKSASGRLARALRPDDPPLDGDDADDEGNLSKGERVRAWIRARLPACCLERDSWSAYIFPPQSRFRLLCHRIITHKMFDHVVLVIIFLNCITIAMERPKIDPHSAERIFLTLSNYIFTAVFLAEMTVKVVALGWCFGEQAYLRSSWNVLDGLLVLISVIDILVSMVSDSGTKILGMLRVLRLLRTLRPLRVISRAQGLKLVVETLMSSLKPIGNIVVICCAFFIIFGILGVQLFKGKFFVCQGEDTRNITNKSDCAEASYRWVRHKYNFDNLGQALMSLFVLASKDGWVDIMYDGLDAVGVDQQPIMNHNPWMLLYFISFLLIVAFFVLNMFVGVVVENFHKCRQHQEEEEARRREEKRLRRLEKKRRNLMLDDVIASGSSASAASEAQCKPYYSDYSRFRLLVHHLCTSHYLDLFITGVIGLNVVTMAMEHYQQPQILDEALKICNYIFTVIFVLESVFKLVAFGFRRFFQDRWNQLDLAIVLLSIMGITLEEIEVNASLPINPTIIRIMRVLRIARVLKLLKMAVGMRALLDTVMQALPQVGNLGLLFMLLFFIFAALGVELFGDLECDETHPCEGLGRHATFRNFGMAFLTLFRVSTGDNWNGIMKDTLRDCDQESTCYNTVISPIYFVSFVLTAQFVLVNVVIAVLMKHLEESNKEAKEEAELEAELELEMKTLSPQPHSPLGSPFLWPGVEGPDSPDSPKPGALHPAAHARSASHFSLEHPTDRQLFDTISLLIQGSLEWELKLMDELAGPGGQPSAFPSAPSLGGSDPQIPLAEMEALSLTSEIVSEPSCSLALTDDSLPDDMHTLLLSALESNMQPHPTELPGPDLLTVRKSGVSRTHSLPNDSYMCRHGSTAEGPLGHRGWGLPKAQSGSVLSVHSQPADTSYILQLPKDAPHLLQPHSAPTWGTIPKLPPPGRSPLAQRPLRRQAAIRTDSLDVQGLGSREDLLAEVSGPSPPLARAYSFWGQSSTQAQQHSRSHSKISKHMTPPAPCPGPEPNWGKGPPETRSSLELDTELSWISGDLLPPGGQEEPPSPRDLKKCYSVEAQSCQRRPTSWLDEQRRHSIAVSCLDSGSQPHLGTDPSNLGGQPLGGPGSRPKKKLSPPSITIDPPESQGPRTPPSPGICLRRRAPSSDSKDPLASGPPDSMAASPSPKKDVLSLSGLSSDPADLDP
- methodNotes: Inhibition of alpha-1G T-type calcium channel expressed in HEK293 cells by electrophysiological method
pIC50 values for the compounds below.
pIC50 (log units): -log10 of the concentration in mol/L.

CN(C)CCNC(=O)c1ccc2c(=O)n(Cc3ccc(Cl)cc3)c(=S)[nH]c2c1 :: 4.27
CCCCN(C)CCNC(=O)c1ccc2c(=O)n(Cc3ccc(Cl)cc3)c(=S)[nH]c2c1 :: 4.94

Let's switch to this compound now.
Q: Fill blank: measured pIC50 of the compound `O=C(NCCCN1CCCCC1)c1ccc2c(=O)n(Cc3ccc(Cl)cc3)c(=S)[nH]c2c1` is ____.
A: 5.68
